Method notes: A CellTox Green Cytotoxicity Assay to monitor cytotoxicity in HepG2 cells - 16 hour (AID 1224876); further: nearly all actives have a fitted effect of over 45% in size
Test settings: CellTox Green fluorescence; series mostly up to 76.8 µM
Text: National Center for Advancing Translational Sciences [NCATS] NIH Chemical Genomics Center [NCGC] U.S. Environmental Protection Agency [EPA] National Institutes of Environmental Health Sciences [NIEHS] National Toxicology Program [NTP] Cell-based models are critical for drug discovery. […] Viable cells produce no appreciable increases in fluorescence. Therefore, the fluorescence signal produced by the binding interaction with dead cell DNA is proportional to cytotoxicity. […]
Records with an inconclusive call do not appear. Active and inactive are the calls of the source. The call rests on the fitted dose curve; in most records, active means well fitted activation curve with a large enough effect in the repeat runs; inconclusive means weak or mixed curves; inactive means flat fitted curve, though single readings scatter.
Can you answer with just one of these options? yes (active), no (inactive)

## Input Returns: the outcome recorded for `N#CC1(c2ccc(F)cc2)CCC(=O)CC1` in this assay.
## Output no

## Input Per the assay record, what outcome was assigned to `O=C(c1ccc(F)cc1)C1CCN(CCn2c(=O)[nH]c3ccccc3c2=O)CC1` ?
## Output no

## Input Call for entry `O=C(O)c1c(Cl)cccc1Cl` :
## Output no

## Input Returns: the outcome recorded for CCC(C)Nc1ccc(NC(C)CC)cc1 (centres undefined) in this assay.
## Output yes

## Input Given `CCOC(=O)O[C@H](C)OC(=O)c1ccc2c(c1)cc(C(=O)NC1CCN(C(C)C)CC1)n2Cc1cc(-c2ccc(Cl)s2)on1` , state the outcome it received in this test.
## Output yes

## Input What classification did `CC(C)n1nc(-c2cc3cc(O)ccc3[nH]2)c2c(N)ncnc21` end up with in this test?
## Output no

## Input Could you check what this test reported for `CCCCCCCCCCCCCCCC[N+](C)(C)CCN(Cc1ccc(OC)cc1)c1ncccn1` ?
## Output yes

## Input What did this assay record as the result for `O=C1c2c(O)ccc(Nc3ccc(CCO)cc3)c2C(=O)c2c([N+](=O)[O-])ccc(O)c21` ?
## Output no

## Input State the result this test recorded for `CN(C)[C@@H]1C(=O)C(C(N)=O)=C(O)[C@@]2(O)C(=O)C3=C(O)c4c(O)ccc(Cl)c4[C@@H](O)[C@H]3C[C@@H]12` .
## Output no

## Input # outcome recorded in this test, key = `O=C(Nc1ccc(Oc2ccc(Cl)cc2)c(Cl)c1)c1cc(I)cc(I)c1O`
## Output no

## Input How did this test come out for `N=C1N=C(N)c2cc3ccccc3cc21` ?
## Output yes

## Input What is the recorded call for this molecule in the test? `CN(C)CCCOC1(Cc2ccccc2)CCCCCC1`
## Output no

## Input Called result for `NC(=NCCCCCCN=C(N)/N=C(\N)Nc1ccc(Cl)cc1)/N=C(\N)Nc1ccc(Cl)cc1`
## Output yes

## Input What did the test return for CCCCC(CC)COC(=O)c1ccccc1C(=O)O (centres undefined) ?
## Output no

## Input What did the test return for `Nc1ccc2c3c(cccc13)-c1ccccc1-2` ?
## Output yes

## Input Called result for `CN(C)C(=O)C1(N2CCCCC2)CCN(CC[C@@]2(c3ccc(Cl)c(Cl)c3)CN(C(=O)c3ccccc3)CCO2)CC1`
## Output yes

## Input Tell me the assay call for `Oc1cccc(-c2c3nc(c(-c4cccc(O)c4)c4ccc([nH]4)c(-c4cccc(O)c4)c4nc(c(-c5cccc(O)c5)c5ccc2[nH]5)CC4)C=C3)c1` please.
## Output no

## Input Please let me know the test result on file for `[Cl][Au]([Cl])[Cl]` .
## Output yes

## Input Write down the call the test reported for this molecule. Item: `Nc1nc2ccccc2n1Cc1ccc(F)cc1`
## Output no

## Input // return assay outcome for CCCCCCCCCCCCCC[P+](CCCC)(CCCC)CCCC (tested in a mixture with another compound)
## Output yes

## Input I'd appreciate the recorded outcome for `CCCCCCCCCCCC(=O)NCCCN(C)C` from this test.
## Output yes

## Input Each molecule tested received a call. Report the one for `CCCCN(CCCC)c1ccc(C(=O)c2ccccc2C(=O)O)c(O)c1` .
## Output no

## Input I would be grateful if you could indicate the recorded call for `CC(C)(C)C(=O)OCOC(=O)[C@@H]1N2C(=O)[C@@H](NC(=O)[C@H](N)c3ccccc3)[C@H]2SC1(C)C` .
## Output no

## Input Outcome? `Cn1cc(C(=O)[C@@H]2CCc3nc[nH]c3C2)c2ccccc21`
## Output no

## Input Short answer needed: outcome of this test for `Cc1[nH]cnc1C[C@H]1CCc2c(C)c3ccccc3n2C1=O` ?
## Output yes

## Input Record request — test call for O=C(OCC1CO1)C1CCCCC1C(=O)OCC1CO1 (centres undefined)
## Output no

## Input Status in this test for `COc1ccc(CN2CCN(C(c3ccc(F)cc3)c3ccc(F)cc3)CC2)c(OC)c1OC` ?
## Output no

## Input Dear colleague, could you share the recorded outcome for `O=c1c(-c2ccccc2)c1-c1ccccc1` when you have a moment?
## Output no

## Input Kindly provide the recorded test outcome for the following molecule: `N/C(=N\N=C\c1ccc(Cl)cc1)N/N=C/c1ccc(Cl)cc1`
## Output yes

## Input So what was the verdict on `COc1c(C)c2c(c(O)c1C/C=C(\C)CCC(=O)O)C(=O)OC2` in this test?
## Output no

## Input Record request — test call for CCC(C)(C)C1CCCCC1OC(C)=O (centres undefined)
## Output no

## Input Recorded test call requested for `CO[Si](CCCNc1ccccc1)(OC)OC`
## Output no

## Input Entry CCCC1O[C@@H]2C[C@H]3[C@@H]4CCC5=CC(=O)C=C[C@]5(C)[C@H]4[C@@H](O)C[C@]3(C)[C@]2(C(=O)CO)O1 (some centres undefined) : call = ?
## Output no

## Input What did this assay record as the result for `Cc1cc(=O)oc2cc(N(C)C)ccc12` ?
## Output no

## Input Hey, what did the test say about `CCCCCCCCCCCC[N+](C)(C)CCCCCCCCCCCC` ?
## Output yes

## Input Name the outcome recorded for `Nc1c(Cl)cc(Cl)cc1Cl` in the assay.
## Output no

## Input Recorded test outcome, item `CC(C)C(C)(C)C(C)(C)C(C)(C)S`
## Output no

## Input I would be grateful if you could indicate the recorded call for `COc1ccc(C(=O)/C(Br)=C\C(=O)O)cc1` .
## Output no

## Input Just curious, what result did `CN1CCC(Nc2ncc3ncnc(Nc4ccc(F)c(Cl)c4)c3n2)CC1` get here?
## Output yes

## Input In this assay, the call recorded for `OCCCCCCCCCCCCBr` was what?
## Output no

## Input Could you kindly confirm the outcome this assay logged for `O=C(NOCC1CC1)c1ccc(F)c(F)c1Nc1ccc(I)cc1Cl` ?
## Output no

## Input Test call for this molecule, please: `O=C(OCC(COC(=O)c1ccccc1)(COC(=O)c1ccccc1)COC(=O)c1ccccc1)c1ccccc1`
## Output no

## Input Hello, I am checking results. What call was entered for `CCCCCCCCCOC(=O)c1ccc(O)cc1` ?
## Output yes

## Input Outcome logged for `CCCCc1oc2ccc(NS(C)(=O)=O)cc2c1C(=O)c1ccc(OCCCN(CCCC)CCCC)cc1` in this assay:
## Output yes

====

Method notes: qHTS assay to test for compound auto fluorescence at 460 nm (blue) in HEK293 cells (AID 720678)
Test settings: blue autofluorescence 405/460 nm; series mostly up to 91.3 µM
Calls of active or inactive are those of the source. Calls come from the whole dose curve; as a rule, active = well fitted curve in the direction sought with a large enough effect in the repeat runs; inconclusive = weak or mixed curves; inactive = flat fitted curve, though single readings scatter.
Parameter: fluorescence, % of triamterene

Sample answers from the record:
# Molecule, Parameter, Result
records = [
    ("OCCCCCCCCCCCCBr", "fluorescence, % of triamterene", "inactive"),
    ("O=C(Nc1cccc(C(F)(F)F)c1)c1cc(Br)cc(Br)c1O", "fluorescence, % of triamterene", "inactive"),
    ("CCOC(=O)O[C@]1(C(=O)OCCl)CC[C@H]2[C@@H]3CCC4=CC(=O)C=C[C@]4(C)[C@H]3[C@@H](O)C[C@@]21C", "fluorescence, % of triamterene", "inactive"),
    ("O=C(OCC(COC(=O)c1ccccc1)(COC(=O)c1ccccc1)COC(=O)c1ccccc1)c1ccccc1", "fluorescence, % of triamterene", "inactive"),
    ("COc1cc(-c2ccc(N=C=O)c(OC)c2)ccc1N=C=O", "fluorescence, % of triamterene", "inactive"),
    ("Oc1cccc(-c2c3nc(c(-c4cccc(O)c4)c4ccc([nH]4)c(-c4cccc(O)c4)c4nc(c(-c5cccc(O)c5)c5ccc2[nH]5)CC4)C=C3)c1", "fluorescence, % of triamterene", "inactive"),
]

## Input Fill in: fluorescence, % of triamterene of `CN(C)c1ccc(C2(c3ccc(N(C)C)cc3)OC(=O)c3cc(N(C)C)ccc32)cc1` is ___
## Output inactive

## Input Value lookup for fluorescence, % of triamterene; key = `O=C(NOCC1CC1)c1ccc(F)c(F)c1Nc1ccc(I)cc1Cl`
## Output inactive

## Input Could you tell me which fluorescence, % of triamterene is on file for `CSc1ccc(C(=O)c2[nH]c(=O)[nH]c2C)cc1` ?
## Output inactive
